All figures here come from patent US20160264593A1.

Protocol details: Pharmacokinetic study of 157 (and metabolite endothal) in SD rats, iv and po; plasma, liver, brain
Type: in vivo
Study conditions: female, SD, rat, in vivo, iv, 1.5 mg/kg
Result type: Cmax
Kindly report the value followed by its unit.

Lookup: Given the entry O=C(O)C1C2CCC(O2)C1C(=O)O (stereo not shown) [Endothal] , report its measured Cmax.
Found: 3720 ng/g

---

Protocol details: Pharmacokinetic study of 157 (and metabolite endothal) in SD rats, iv and po; plasma, liver, brain
Assay type: in vivo
Study conditions: female, Sprague-Dawley (SD), rat, in vivo, iv, 1.5 mg/kg, iv 1.5 mg/kg, 2 hr, Rat 1; read-out: 157 plasma concentration
Result type: concentration at 2 h (ng/mL)
State just the number; it will be interpreted in ng/mL.

Lookup: Which concentration at 2 h value is on record for CCCCCCCOC(=O)C1C2CCC(O2)C1C(=O)N1CCN(C)CC1 (stereo not shown) [Compound 157] ?
Found: 0.491
